Origin of the recorded values: the supplement of paper PMC8728848

# SYSTEM: Fuc(a1-2)Gal(b1-3)GalNAc
# METHOD: glycan array binding signal (z-score within array); higher = stronger binding
# TEST_CONTEXT: glycan notation: IUPAC condensed, linker removed
This excerpt belongs to a sample that is enriched for the strongest signals.
ENDPOINT_NAME: glycan array binding signal (z-score)

[[record]]
binder = "Epa1 (Candida glabrata) (protein) MGSSHHHHHHSSGLVPRGSHMTSSNDISLASKDPTTFPLGCSPDITTPKKGLSMELYSYDFRKKGSYPCWDAAYLDPNYPRTGYKSHRLLAKVDGVTGNINFYYHATKGCTPQLGHLPASYNYPKPLTMTNFTMLLYGYFRPKVTGFHTFTISADDLLFVNFGAGNAFDCCRRDSSADHFGNYQAYAIWGSKTAKDELTVHLDAGVYYPIRLFYNNREYDGALSFTFKTESNENTVSDFSEYFFSLDDTEEGCPGLISYD"
endpoint_name = "glycan array binding signal (z-score)"
reported = -0.25

[[record]]
binder = "SAG3 (Toxoplasma gondii), Q9BJ39 (protein) MQLWRRRAAGPASLGRQSLPLGCFFAAFGLCVLSAILGTGERGLFVAAGNSRRKITYFGTLTQKAPNWYRCSSTRAKEEVVGHVTLNKEHPDMTIECVDDGLGGEFLPLEGARSSYPRVCHIDAKDQDDCERNRGFLTDYIPGAKQYWYKIEKVEQNGEQSVLYKFTVPWILLPPAKQRYKVGCRYPNHEYCFVEVTVEPTPPMVEGKRVTCGYSESGPVNLEVDLSKNANFIEIRCGEQHHPQPSTYTLQYCSGDSVDPQKCSPQSLTNIFYDYSSSWWKGKLNGPDGATLTIPPGGFPEEDKSFLVGCSLTVDGPPFCNVKVRVAGNPRKWERGGGGHPGSGGLQPGTDGETQAGTGSSAGASSRMASVALAFLLGLLVHVAA"
endpoint_name = "glycan array binding signal (z-score)"
reported = -0.359

[[record]]
binder = "BIp1-His (Cryptococcus neoformans) (protein) MFTKIFVALFAATAVLSAPVESAEKRITHTGRATFYSPSVGIGACGWQNTDEELVVALNAPQYALNADHNCGQSVRITNEQNGNQEIAKVVDLCPGCNDGDLDMSPALFGALNNNDFDQGVFPISWNFLPRDDTSSSN"
endpoint_name = "glycan array binding signal (z-score)"
reported = -0.387

[[record]]
binder = "CV-2L (Chromobacterium violaceum), Q7NX84 (protein) MAQQGVFTLPARINFGVTVLVNSAATQHVEIFVDNEPRAAFSGVGTGDNNLGTKVINSGSGNVRVQITANGRQSDLVSSQLVLANKLNLAVVGSEDGTDMDYNDSIVILNWPLG"
endpoint_name = "glycan array binding signal (z-score)"
reported = 0.156

